- measured_on: alkaline phosphatase (Homo sapiens)
- Sequence (P05187 23-506 limits assumed): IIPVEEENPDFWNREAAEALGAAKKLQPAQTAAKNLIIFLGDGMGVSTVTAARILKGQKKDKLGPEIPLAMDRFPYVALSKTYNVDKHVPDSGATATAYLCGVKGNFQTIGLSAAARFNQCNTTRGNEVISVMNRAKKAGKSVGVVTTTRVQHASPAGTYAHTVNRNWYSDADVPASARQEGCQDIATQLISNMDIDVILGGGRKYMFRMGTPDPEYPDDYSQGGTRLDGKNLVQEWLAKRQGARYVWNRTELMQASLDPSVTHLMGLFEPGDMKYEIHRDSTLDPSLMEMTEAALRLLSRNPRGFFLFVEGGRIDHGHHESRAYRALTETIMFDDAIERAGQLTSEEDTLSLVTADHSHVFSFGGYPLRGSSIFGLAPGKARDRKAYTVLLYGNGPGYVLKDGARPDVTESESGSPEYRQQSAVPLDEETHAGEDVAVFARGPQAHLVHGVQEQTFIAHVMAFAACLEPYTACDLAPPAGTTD
- assay_summary: Conversion of the mutual MRA-β-agonist prodrug to salmeterol and MRA after exposure to alkaline phosphatase in vitro (LCMS)
- Assay type: in vitro ADME
- protocol_conditions: human, pH 7.4, ALP Enzyme Conc. 0.224 mg/mL; 37 degrees; first order kinetics assumed; read-out: Half Life t1/2
reported_endpoint: half-life (h)

INSERT INTO assay_data (compound, measured_on, value_reported) VALUES
  ('C[N+]1(Cc2cc(C(O)CNCCCCCCOCCCCc3ccccc3)ccc2OP(=O)(O)O)CCC(CNC(=O)[C@H]2CCCN2C(=O)[C@@H]2C[C@@H](O)CN2C(=O)CC(c2ccc(F)cc2)(c2ccc(F)cc2)c2ccc(F)cc2)CC1 (stereo partly shown)', 'alkaline phosphatase (Homo sapiens)', 1.04);
